- TGT: T1, cynoNectin4-mFc (cyno, UniProt A0A2K5WES1 32-349)
- T1 construct: Immobilized on the SPR chip; also called cyanoNectin4; not shown: mFc (mouse Fc)
- T1 sequence: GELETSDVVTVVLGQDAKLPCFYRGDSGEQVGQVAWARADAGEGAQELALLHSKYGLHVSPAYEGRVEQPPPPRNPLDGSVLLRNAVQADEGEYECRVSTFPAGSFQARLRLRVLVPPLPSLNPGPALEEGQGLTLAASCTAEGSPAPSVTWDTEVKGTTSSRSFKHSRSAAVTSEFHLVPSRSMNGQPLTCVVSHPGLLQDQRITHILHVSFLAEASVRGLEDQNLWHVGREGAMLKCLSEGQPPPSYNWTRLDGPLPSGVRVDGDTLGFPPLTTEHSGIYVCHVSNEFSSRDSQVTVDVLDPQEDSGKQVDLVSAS
- ASSAY EXPLANATION: SPR, cynoNectin4-mFc immobilized, pH 6.0
MEASURED QUANTITY: koff (s⁻¹)
Could you give me the number in s⁻¹? Just the number is fine.

BAP-143-00-02 (antibody, V domains shown, Used as a conjugate with a linker payload (CAB ADC)) VH: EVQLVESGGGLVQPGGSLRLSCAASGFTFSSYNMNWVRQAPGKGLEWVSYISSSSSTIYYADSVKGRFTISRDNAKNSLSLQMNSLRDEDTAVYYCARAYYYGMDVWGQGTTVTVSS VL: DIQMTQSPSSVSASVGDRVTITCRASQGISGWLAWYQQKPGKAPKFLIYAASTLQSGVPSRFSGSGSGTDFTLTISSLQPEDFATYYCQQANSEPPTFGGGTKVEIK: 0.00242
BAP-143-00-04 (antibody, V domains shown, Used as a conjugate with a linker payload (CAB ADC)) VH: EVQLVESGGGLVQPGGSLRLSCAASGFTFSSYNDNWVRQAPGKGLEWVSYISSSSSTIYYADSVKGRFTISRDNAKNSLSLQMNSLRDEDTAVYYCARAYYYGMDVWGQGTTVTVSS VL: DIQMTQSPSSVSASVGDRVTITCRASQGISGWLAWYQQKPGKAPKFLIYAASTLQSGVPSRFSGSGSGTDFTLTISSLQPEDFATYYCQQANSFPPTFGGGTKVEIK: 0.00377
BAP-143-00-06 (antibody, V domains shown, Used as a conjugate with a linker payload (CAB ADC)) VH: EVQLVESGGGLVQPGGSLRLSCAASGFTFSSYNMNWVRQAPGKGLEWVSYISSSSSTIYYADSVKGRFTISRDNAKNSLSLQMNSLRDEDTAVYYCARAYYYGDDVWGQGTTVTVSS VL: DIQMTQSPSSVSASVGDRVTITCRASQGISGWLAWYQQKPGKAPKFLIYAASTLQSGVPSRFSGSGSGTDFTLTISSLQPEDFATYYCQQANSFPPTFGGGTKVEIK: 0.00141
BAP-143-00-01 (antibody, V domains shown, Used as a conjugate with a linker payload (CAB ADC)) VH: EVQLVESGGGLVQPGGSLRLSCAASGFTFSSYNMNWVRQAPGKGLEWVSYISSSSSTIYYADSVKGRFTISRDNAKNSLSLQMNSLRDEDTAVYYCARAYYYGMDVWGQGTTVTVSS VL: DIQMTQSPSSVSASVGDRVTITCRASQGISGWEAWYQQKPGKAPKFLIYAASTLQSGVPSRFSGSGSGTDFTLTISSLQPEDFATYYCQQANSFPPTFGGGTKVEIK: 0.00248
BAP-143-00-03 (antibody, V domains shown, Used as a conjugate with a linker payload (CAB ADC)) VH: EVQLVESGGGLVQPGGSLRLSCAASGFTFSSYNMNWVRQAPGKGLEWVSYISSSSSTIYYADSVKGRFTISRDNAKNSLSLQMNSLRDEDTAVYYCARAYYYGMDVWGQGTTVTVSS VL: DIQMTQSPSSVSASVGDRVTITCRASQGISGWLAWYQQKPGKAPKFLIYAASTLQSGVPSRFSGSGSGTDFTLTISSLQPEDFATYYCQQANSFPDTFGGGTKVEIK: 0.00235

Q: Provide measured koff value, entry: BAP-143-00-05 (antibody, V domains shown, Used as a conjugate with a linker payload (CAB ADC)) VH: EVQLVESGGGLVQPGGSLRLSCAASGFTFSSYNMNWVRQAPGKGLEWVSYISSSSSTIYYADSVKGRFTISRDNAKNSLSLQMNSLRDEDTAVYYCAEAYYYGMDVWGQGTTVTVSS VL: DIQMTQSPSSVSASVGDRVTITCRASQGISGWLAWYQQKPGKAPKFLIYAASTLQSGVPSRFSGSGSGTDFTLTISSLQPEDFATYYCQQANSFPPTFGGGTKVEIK
Result: 0.00449
